System: M. xenopi (ATCC 19250)
Simple rule here: MIC less than 0.03 µg/mL is 1 (yes), otherwise 0 (no).

>  <MOLECULE>
CO[C@H]1/C=C/O[C@@]2(C)Oc3c(C)c(O)c4c(c3C2=O)C2=NC3(CCN(CC(C)C)CC3)NC2=C(NC(=O)/C(C)=C\C=C\[C@H](C)[C@H](O)[C@@H](C)[C@@H](O)[C@@H](C)[C@H](OC(=O)N2CCN(C3CCCCC3)CC2)[C@@H]1C)C4=O [Compound 10]

>  <SYSTEM>
M. xenopi (ATCC 19250)

>  <DISCRETE_LABEL>
1 (yes)

$$$$
>  <MOLECULE>
CO[C@H]1/C=C/O[C@@]2(C)Oc3c(C)c(O)c4c(c3C2=O)C2=NC3(CCN(CC(C)C)CC3)NC2=C(NC(=O)/C(C)=C\C=C\[C@H](C)[C@H](O)[C@@H](C)[C@@H](O)[C@@H](C)[C@H](OC(=O)NC2CCN(C3CCCCC3)CC2)[C@@H]1C)C4=O [Compound 77]

>  <SYSTEM>
M. xenopi (ATCC 19250)

>  <DISCRETE_LABEL>
0 (no)

$$$$
>  <MOLECULE>
CO[C@H]1/C=C/O[C@@]2(C)Oc3c(C)c(O)c4c(c3C2=O)C2=NC3(CCN(CC(C)C)CC3)NC2=C(NC(=O)/C(C)=C\C=C\[C@H](C)[C@H](O)[C@@H](C)[C@@H](O)[C@@H](C)[C@H](OC(=O)N2CCC(c3ccncc3)CC2)[C@@H]1C)C4=O [Compound 2]

>  <SYSTEM>
M. xenopi (ATCC 19250)

>  <DISCRETE_LABEL>
1 (yes)

$$$$

Please state whether MIC is below 0.03 µg/mL for CO[C@H]1/C=C/O[C@@]2(C)Oc3c(C)c(O)c4c(c3C2=O)C2=NC3(CCN(CC(C)C)CC3)NC2=C(NC(=O)/C(C)=C\C=C\[C@H](C)[C@H](O)[C@@H](C)[C@@H](O)[C@@H](C)[C@H](OC(=O)N2CCN(CC3CCCCC3)CC2)[C@@H]1C)C4=O [Compound 9]
1 (yes)

Please state whether MIC is below 0.03 µg/mL for CO[C@H]1/C=C/O[C@@]2(C)Oc3c(C)c(O)c4c(c3C2=O)C2=NC3(CCN(CC(C)C)CC3)NC2=C(NC(=O)/C(C)=C\C=C\[C@H](C)[C@H](O)[C@@H](C)[C@@H](O)[C@@H](C)[C@H](OC(=O)N2CCN(c3ccccc3)CC2)[C@@H]1C)C4=O [Compound 7]
1 (yes)

Please state whether MIC is below 0.03 µg/mL for CCCCN1CCC(NC(=O)O[C@H]2[C@H](C)[C@H](O)[C@H](C)[C@@H](O)[C@@H](C)/C=C/C=C(/C)C(=O)NC3=C4NC5(CCN(CC(C)C)CC5)N=C4c4c(c(O)c(C)c5c4C(=O)[C@@](C)(O/C=C/[C@H](OC)[C@H]2C)O5)C3=O)CC1 [Compound 30]
0 (no)

Please state whether MIC is below 0.03 µg/mL for CO[C@H]1/C=C/O[C@@]2(C)Oc3c(C)c(O)c4c(c3C2=O)C2=NC3(CCN(CC(C)C)CC3)NC2=C(NC(=O)/C(C)=C\C=C\[C@H](C)[C@H](O)[C@@H](C)[C@@H](O)[C@@H](C)[C@H](OC(=O)N2C[C@H]3CN(CC5CCCCC5)C[C@H]3C2)[C@@H]1C)C4=O [Compound 67]
1 (yes)
